Assign log10 microsomal CLint at 1 h to each entry below.
assayName: Metabolic stability in human liver microsomes assessed as intrinsic clearance measured upto 60 mins LC-MS analysis
Quick note: numbers are log10 of microsomal CLint at 1 h, with µL/min/mg as the unit.

### Prompt # input molecule: CCCOC1=CC(c2ccc[nH]2)=N/C1=C\NC12CC3CC(CC(C3)C1)C2.Cl ; wanted: its log10 microsomal CLint at 1 h
### Response 1.63

### Prompt Returns the measured log10 microsomal CLint at 1 h for the input molecule. Input: CCCCCc1cc(/C=C2\N=C(c3ccc[nH]3)C=C2OCCC)[nH]c1C.Cl
### Response 1.50

### Prompt Give the measured log10 microsomal CLint at 1 h of C1=C(OCc2ccccc2)/C(=C/NC23CC4CC(CC(C4)C2)C3)N=C1c1ccc[nH]1.Cl .
### Response 1.86

### Prompt Reported log10 microsomal CLint at 1 h, molecule C1=C(OCc2ccccc2)/C(=C/NC2CCCCCC2)N=C1c1ccc[nH]1.Cl : ____
### Response 1.93

### Prompt // log10 microsomal CLint at 1 h lookup, key: CCOC1=CC(c2ccc[nH]2)=N/C1=C\NC1CCCCCC1.Cl
### Response 1.59

### Prompt Which log10 microsomal CLint at 1 h is listed for CCCCCc1cc(/C=C2\N=C(c3ccc[nH]3)C=C2OCc2ccccc2)[nH]c1C.Cl ?
### Response 0.59

### Prompt Using the record for CCCCCC1=C/C(=C\c2[nH]c(-c3ccc[nH]3)cc2OC)N=C1C , report its log10 microsomal CLint at 1 h.
### Response 1.12

### Prompt Entry Cl.FC(F)(F)Oc1ccc(COC2=CC(c3ccc[nH]3)=N/C2=C\NC23CC4CC(CC(C4)C2)C3)cc1 has what log10 microsomal CLint at 1 h?
### Response 1.49

### Prompt Using the record for CCCCCCCCCCCc1ccc(/C=C2\N=C(c3ccc[nH]3)C=C2Oc2ccccc2)[nH]1.Cl , report its log10 microsomal CLint at 1 h.
### Response 1.37

### Prompt Returns the measured log10 microsomal CLint at 1 h for the input molecule. Input: Cl.Clc1ccc(OC2=CC(c3ccc[nH]3)=N/C2=C\NC23CC4CC(CC(C4)C2)C3)cc1
### Response 0.83

###

assayName: Metabolic stability in mouse liver microsomes assessed as half life measured upto 60 mins LC-MS analysis
Provide the reported half-life at 1 h of each item.
Write the answer as a number in min, unit excluded.

### Prompt Requested field: half-life at 1 h. Item: CCCCCc1cc(/C=C2\N=C(c3ccc[nH]3)C=C2OCCC)[nH]c1C.Cl
### Response 34

### Prompt Look up half-life at 1 h: CCCCCCCCCCCc1ccc(/C=C2\N=C(c3ccc[nH]3)C=C2OCC)[nH]1.Cl
### Response 41.9

### Prompt # get_value(readout='half-life at 1 h', item= CC(C)OC1=CC(c2ccc[nH]2)=N/C1=C\NC1CCCCCC1.Cl )
### Response 18

### Prompt // half-life at 1 h lookup, key: CCOC1=CC(c2ccc[nH]2)=N/C1=C\NC12CC3CC(CC(C3)C1)C2.Cl
### Response 32.7

### Prompt For the compound CC(C)OC1=CC(c2ccc[nH]2)=N/C1=C\NC12CC3CC(CC(C3)C1)C2.Cl , what half-life at 1 h is on record?
### Response 30.9

### Prompt Return reported half-life at 1 h; argument: CCCCCCCCCCCc1ccc(/C=C2\N=C(c3ccc[nH]3)C=C2Oc2ccccc2)[nH]1.Cl
### Response 16.2

### Prompt Using the record for Cl.FC(F)(F)Oc1ccc(COC2=CC(c3ccc[nH]3)=N/C2=C\NC23CC4CC(CC(C4)C2)C3)cc1 , report its half-life at 1 h.
### Response 56.4

### Prompt Reported half-life at 1 h, compound CCCOC1=CC(c2ccc[nH]2)=N/C1=C\NC12CC3CC(CC(C3)C1)C2.Cl : ____
### Response 43.5

### Prompt I'd like to know its half-life at 1 h. The compound in question is CCCOC1=CC(c2ccc[nH]2)=N/C1=C\NC1CCCCCC1.Cl
### Response 53.2

### Prompt Requested field: half-life at 1 h. Item: CCCCCc1cc(/C=C2\N=C(c3ccc[nH]3)C=C2Oc2ccccc2)[nH]c1C.Cl
### Response 54.9

### Prompt Using the record for CCCCCC1=C/C(=C\c2[nH]c(-c3ccc[nH]3)cc2OC)N=C1C , report its half-life at 1 h.
### Response 23

### Prompt Would you mind telling me what half-life at 1 h value was observed for CCCCCc1cc(/C=C2\N=C(c3ccc[nH]3)C=C2Oc2ccc(OC(F)(F)F)cc2)[nH]c1C.Cl ?
### Response 38
